Recorded values, source PubChem BioAssay AID2060884.

- Test system: NCI-H929 complex spheroids, viability % test/control
- PROTOCOL_NOTES: Anticancer human tumor NCI-H929 cell line growth inhibition [RAS]; active = viability on the fitted dose curve at most 10% of control; inactive = the rest;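 note: compound exposure lasted seven days before viability was read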
- MEASUREMENT_PARAMETERS: compound 0.316 µM
The reply should be one of these categories: True (active), False (inactive)

Req: Please indicate how the test categorized NC1c2ccccc2OC12CCN(c1cnc3c(N4CCCc5ncccc54)n[nH]c3n1)CC2 (stereo not drawn) .
Resp: False

---

- System: NCI-H929 complex spheroids, viability % test/control
- PROTOCOL_NOTES: Anticancer human tumor NCI-H929 cell line growth inhibition [RAS]; active means viability on the fitted dose curve at most 10% of control; inactive means the rest;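 note: compound exposure lasted seven days before viability was read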
- MEASUREMENT_PARAMETERS: second compound 0.003 µM; first compound 0.003 µM
The reply should be one of these categories: 1.0 for active, 0.0 for inactive

compound="CC1(C)CCC(Nc2ncc(C(F)(F)F)c(-c3c[nH]c4c(P(C)(C)=O)c(C#N)ccc34)n2)CN1 (centres undefined) + CCn1c(-c2cc(N3CCN(C)CC3)cnc2C(C)OC)c2c3cc(ccc31)-c1csc(n1)CC(NC(=O)C1CC1C)C(=O)N1CCCC(N1)C(=O)OCC(C)(C)C2" subject_of_test="NCI-H929 complex spheroids, viability % test/control" qualitative_label=0.0
compound="CCc1c2c(nc3ccc(O)cc13)-c1cc3c(c(=O)n1C2)COC(=O)[C@]3(O)CC + CCn1c(-c2cc(N3CCN(C)CC3)cnc2C(C)OC)c2c3cc(ccc31)-c1csc(n1)CC(NC(=O)C1CC1C)C(=O)N1CCCC(N1)C(=O)OCC(C)(C)C2" subject_of_test="NCI-H929 complex spheroids, viability % test/control" qualitative_label=0.0
compound="CCc1c2c(nc3ccc(O)cc13)-c1cc3c(c(=O)n1C2)COC(=O)[C@]3(O)CC + CCn1c(-c2cccnc2C(C)OC)c2c3cc(ccc31)N1CCOC(CC(NC(=O)C(C(C)C)N(C)C(=O)C3(F)CCN(C(=O)C#CC(C)(C)N(C)C)CC3)C(=O)N3CCCC(N3)C(=O)OCC(C)(C)C2)C1" subject_of_test="NCI-H929 complex spheroids, viability % test/control" qualitative_label=1.0

Here is another compound to look at.
Req: Please indicate how the test categorized CC1(C)CCC(Nc2ncc(C(F)(F)F)c(-c3c[nH]c4c(P(C)(C)=O)c(C#N)ccc34)n2)CN1 (centres undefined) + CCn1c(-c2cccnc2C(C)OC)c2c3cc(ccc31)N1CCOC(CC(NC(=O)C(C(C)C)N(C)C(=O)C3(F)CCN(C(=O)C#CC(C)(C)N(C)C)CC3)C(=O)N3CCCC(N3)C(=O)OCC(C)(C)C2)C1 .
Resp: 0.0

---

// values below are reported viability, T/C
- System: NCI-H929 complex spheroids, viability % test/control
- PROTOCOL_NOTES: Anticancer human tumor NCI-H929 cell line growth inhibition [RAS];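 note: compound exposure lasted seven days before viability was read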;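 for viability, T/C: 100% = DMSO vehicle control viability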
- MEASUREMENT_PARAMETERS: second compound 0.3 µM; first compound 0.003 µM; stronger effect = lower value
Numeric only. Scale: %

compound="CCc1c2c(nc3ccc(O)cc13)-c1cc3c(c(=O)n1C2)COC(=O)[C@]3(O)CC + CCn1c(-c2cccnc2C(C)OC)c2c3cc(ccc31)N1CCOC(CC(NC(=O)C(C(C)C)N(C)C(=O)C3(F)CCN(C(=O)C#CC(C)(C)N(C)C)CC3)C(=O)N3CCCC(N3)C(=O)OCC(C)(C)C2)C1" subject_of_test="NCI-H929 complex spheroids, viability % test/control" scale_unit=% recorded_result=1.54
compound="CC1(C)CCC(Nc2ncc(C(F)(F)F)c(-c3c[nH]c4c(P(C)(C)=O)c(C#N)ccc34)n2)CN1 (centres undefined) + CCn1c(-c2cccnc2C(C)OC)c2c3cc(ccc31)N1CCOC(CC(NC(=O)C(C(C)C)N(C)C(=O)C3(F)CCN(C(=O)C#CC(C)(C)N(C)C)CC3)C(=O)N3CCCC(N3)C(=O)OCC(C)(C)C2)C1" subject_of_test="NCI-H929 complex spheroids, viability % test/control" scale_unit=% recorded_result=5.86
compound="CC1(C)CCC(Nc2ncc(C(F)(F)F)c(-c3c[nH]c4c(P(C)(C)=O)c(C#N)ccc34)n2)CN1 (centres undefined) + CCn1c(-c2cc(N3CCN(C)CC3)cnc2C(C)OC)c2c3cc(ccc31)-c1csc(n1)CC(NC(=O)C1CC1C)C(=O)N1CCCC(N1)C(=O)OCC(C)(C)C2" subject_of_test="NCI-H929 complex spheroids, viability % test/control" scale_unit=% recorded_result=0.63

Now, please, on to the next compound.
Req: For the compound shown here, CCc1c2c(nc3ccc(O)cc13)-c1cc3c(c(=O)n1C2)COC(=O)[C@]3(O)CC + CCn1c(-c2cc(N3CCN(C)CC3)cnc2C(C)OC)c2c3cc(ccc31)-c1csc(n1)CC(NC(=O)C1CC1C)C(=O)N1CCCC(N1)C(=O)OCC(C)(C)C2 , give the reported viability, T/C.
Resp: 1.55

---

- Tested on: NCI-H929 complex spheroids, viability % test/control
- PROTOCOL_NOTES: Anticancer human tumor NCI-H929 cell line growth inhibition [RAS]; active = viability on the fitted dose curve at most 10% of control; inactive = the rest;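 note: compound exposure lasted seven days before viability was read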
- MEASUREMENT_PARAMETERS: second compound 0.03 µM; first compound 0.1 µM
- From the text: RAS pathway inhibitors in Combinations in Complex Spheroids A high-throughput screen of multi-cell type tumor spheroids was designed to identify active combinations of RAS pathway inhibitors and targeted small molecules. Complex spheroids include a stromal component modeled by human endothelial cells (HUVEC) and fibroblasts modeled by human mesenchymal stem cells (MSCs). […] Compounds. […] If the clinical Cmax for an agent had not been determined, the highest concentration tested was 10 microM. […]
The reply should be one of these categories: active, inactive

compound="CCN1CCN(Cc2ccc(Nc3ncc(F)c(-c4cc(F)c5nc(C)n(C(C)C)c5c4)n3)nc2)CC1 + CCn1c(-c2cc(N3CCN(C)CC3)cnc2C(C)OC)c2c3cc(ccc31)-c1csc(n1)CC(NC(=O)C1CC1C)C(=O)N1CCCC(N1)C(=O)OCC(C)(C)C2" subject_of_test="NCI-H929 complex spheroids, viability % test/control" qualitative_label=inactive

Here is another compound to look at.
Req: Please indicate how the test categorized Nc1ccn(C2OC(CO)C(O)C2(F)F)c(=O)n1 (configuration not stated) + CCn1c(-c2cccnc2C(C)OC)c2c3cc(ccc31)N1CCOC(CC(NC(=O)C(C(C)C)N(C)C(=O)C3(F)CCN(C(=O)C#CC(C)(C)N(C)C)CC3)C(=O)N3CCCC(N3)C(=O)OCC(C)(C)C2)C1 .
Resp: active

---

- Tested on: NCI-H929 complex spheroids, viability % test/control
- PROTOCOL_NOTES: Anticancer human tumor NCI-H929 cell line growth inhibition [RAS];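 note: compound exposure lasted seven days before viability was read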
- MEASUREMENT_PARAMETERS: curve of first compound; second compound 0.1 µM
// values below are reported pIC50
In plain terms, pIC50 is the concentration in mol/L turned into minus its base-10 logarithm.

compound="CCc1c2c(nc3ccc(O)cc13)-c1cc3c(c(=O)n1C2)COC(=O)[C@]3(O)CC + C#Cc1c(F)ccc2cc(O)cc(-c3ncc4c(N5CC6CCC(C5)N6)nc(OCC56CCCN5CC(F)C6)nc4c3F)c12" metric=pIC50 recorded_result=8.71

Now, please, on to the next compound.
Req: Look up pIC50 with NCI-H929 complex spheroids, viability % test/control for this compound: CC1(O)CCCC1n1c(=O)c(C(F)F)cc2cnc(NC3CCN(S(C)(=O)=O)CC3)nc21 (stereo not given) + C=CC(=O)N1CCN(c2nc(OCC3CCCN3C)nc3c(F)c(-c4nc(N)cc(C)c4C(F)(F)F)c(Cl)cc23)C(C)C1
Resp: 6.72

---

- System: NCI-H929 complex spheroids, viability % test/control
- PROTOCOL_NOTES: Anticancer human tumor NCI-H929 cell line growth inhibition [RAS];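 note: compound exposure lasted seven days before viability was read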;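 for viability, T/C: 100% = DMSO vehicle control viability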
- MEASUREMENT_PARAMETERS: second compound 3.16 µM; first compound 1 µM; stronger effect = lower value
METRIC: viability, T/C (%)
Numeric only. Scale: %

compound="CCN1CCN(Cc2ccc(Nc3ncc(F)c(-c4cc(F)c5nc(C)n(C(C)C)c5c4)n3)nc2)CC1 + C#Cc1c(F)ccc2cc(O)cc(-c3ncc4c(N5CC6CCC(C5)N6)nc(OCC56CCCN5CC(F)C6)nc4c3F)c12" subject_of_test="NCI-H929 complex spheroids, viability % test/control" metric="viability, T/C" scale_unit=% recorded_result=115
compound="O=C(c1ccc(F)c(F)c1Nc1ccc(I)cc1F)N1CC(O)([C@@H]2CCCCN2)C1 + C#Cc1c(F)ccc2cc(O)cc(-c3ncc4c(N5CC6CCC(C5)N6)nc(OCC56CCCN5CC(F)C6)nc4c3F)c12" subject_of_test="NCI-H929 complex spheroids, viability % test/control" metric="viability, T/C" scale_unit=% recorded_result=40.7
compound="CC(Nc1ccc2c(c1)OCCn1cc(N3C(=O)OCC3C(F)F)nc1-2)C(N)=O (stereo not given) + C#Cc1c(F)ccc2cc(O)cc(-c3ncc4c(N5CC6CCC(C5)N6)nc(OCC56CCCN5CC(F)C6)nc4c3F)c12" subject_of_test="NCI-H929 complex spheroids, viability % test/control" metric="viability, T/C" scale_unit=% recorded_result=114
compound="CCC(CC)c1cc(NC2CCC(N)C2)n2nccc2n1 (stereo not given) + C#Cc1c(F)ccc2cc(O)cc(-c3ncc4c(N5CC6CCC(C5)N6)nc(OCC56CCCN5CC(F)C6)nc4c3F)c12" subject_of_test="NCI-H929 complex spheroids, viability % test/control" metric="viability, T/C" scale_unit=% recorded_result=113

Now, please, on to the next compound.
Req: Look up viability, T/C with NCI-H929 complex spheroids, viability % test/control for this compound: C=CC(=O)Nc1cc(Nc2nccc(-c3cn(C)c4ccccc34)n2)c(OC)cc1N(C)CCN(C)C + C#Cc1c(F)ccc2cc(O)cc(-c3ncc4c(N5CC6CCC(C5)N6)nc(OCC56CCCN5CC(F)C6)nc4c3F)c12
Resp: 104
